# measured_target: Sodium-dependent noradrenaline transporter (Homo sapiens, UniProt P23975)
# Sequence (P23975 whole entry): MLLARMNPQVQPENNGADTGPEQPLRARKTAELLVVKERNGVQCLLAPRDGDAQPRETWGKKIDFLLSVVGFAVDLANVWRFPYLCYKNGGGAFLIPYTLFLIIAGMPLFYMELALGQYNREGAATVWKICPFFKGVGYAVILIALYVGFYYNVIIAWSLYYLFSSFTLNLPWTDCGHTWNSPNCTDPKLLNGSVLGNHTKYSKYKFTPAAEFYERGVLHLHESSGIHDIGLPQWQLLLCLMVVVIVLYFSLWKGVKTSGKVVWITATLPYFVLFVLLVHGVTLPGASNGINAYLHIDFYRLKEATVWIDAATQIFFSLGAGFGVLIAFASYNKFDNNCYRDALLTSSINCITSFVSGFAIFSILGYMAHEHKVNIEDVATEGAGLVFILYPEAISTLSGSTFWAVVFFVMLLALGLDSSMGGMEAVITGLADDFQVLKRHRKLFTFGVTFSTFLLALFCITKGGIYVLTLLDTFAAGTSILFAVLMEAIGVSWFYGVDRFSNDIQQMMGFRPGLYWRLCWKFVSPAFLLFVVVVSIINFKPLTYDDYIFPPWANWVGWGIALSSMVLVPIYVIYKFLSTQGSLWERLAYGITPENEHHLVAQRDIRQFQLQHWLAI
# assay_name: Displacement of [3H]nisoxetine from human recombinant NET by scintillation proximity assay
pKi: −log10 of the molar value.
Returns Met if the recorded pKi is greater than or equal to 8, and Not met otherwise.

## Task Dear colleague, could you confirm whether Cc1ccnn1CC12CNCC[C@]1(c1ccc(Cl)c(Cl)c1)C2 (single isomer, unassigned; enantiomer 2) has pKi at or above 8?
## Result Met

## Task Dear colleague, could you confirm whether Cc1csc(C[C@@]23CNCC[C@]2(c2ccc(Cl)c(Cl)c2)C3)n1 (racemic) has pKi at or above 8?
## Result Met

## Task Dear colleague, could you confirm whether Cc1csc(C23CNCC[C@]2(c2ccc(Cl)c(Cl)c2)C3)n1 (single isomer, unassigned; enantiomer 1) has pKi at or above 8?
## Result Met

## Task Is pKi for CC(C)(C)c1ccn(C[C@@]23CNCC[C@]2(c2ccc(Cl)c(Cl)c2)C3)n1 (racemic) at or above 8?
## Result Not met

## Task Dear colleague, could you confirm whether Cc1ccc(C)n1C[C@@]12CNCC[C@]1(c1ccc(Cl)c(Cl)c1)C2 (racemic) has pKi at or above 8?
## Result Not met

## Task Is reported pKi greater than or equal to 8 here: Cc1cc(C)n(CC23CNCC[C@]2(c2ccc(Cl)c(Cl)c2)C3)n1 (single isomer, unassigned)
## Result Met

## Task Is the recorded value of pKi equal to or greater than 8 for this compound? Cc1cc(C)n(CC23CNCC[C@]2(c2ccc(Cl)c(Cl)c2)C3)n1 (single isomer, unassigned; enantiomer 1)
## Result Not met

## Task Does pKi meet or surpass 8 for Cc1cc(C)n(C[C@@]23CNCC[C@]2(c2ccc(Cl)c(Cl)c2)C3)c1 (racemic) ?
## Result Not met

## Task pKi >= 8 for Cc1ncoc1C[C@@]12CNCC[C@]1(c1ccc(Cl)c(Cl)c1)C2 (racemic) ?
## Result Not met

## Task Is reported pKi greater than or equal to 8 here: Cc1noc([C@@]23CNCC[C@]2(c2ccc(Cl)c(Cl)c2)C3)n1 (racemic)
## Result Not met

## Task Does the compound Clc1ccc([C@]23CCNCC2(Cn2ncc4ccccc42)C3)cc1Cl (some centres not stated) have recorded pKi that is 8 or more?
## Result Not met

## Task Please tell me: is the compound FC(F)(F)c1ccn(C[C@@]23CNCC[C@]2(c2ccc(Cl)c(Cl)c2)C3)n1 (racemic) at or over 8 in terms of pKi?
## Result Not met

## Task Does the reported pKi for N#Cc1ccn(CC23CNCC[C@]2(c2ccc(Cl)c(Cl)c2)C3)c1 (single isomer, unassigned; enantiomer 1) fall at or above the 8 mark?
## Result Not met

## Task Would you say Cc1cc([C@@]23CNCC[C@]2(c2ccc(Cl)c(Cl)c2)C3)no1 (racemic) shows pKi at minimum 8?
## Result Not met

====

# measured_target: UniProtKB P23975
# assay_name: Displacement of [3H]nisoxetine from human recombinant NET by scintillation proximity assay
Would you mind telling me the reported pKi of each entry?
Recall that pKi is obtained by taking minus log10 of the concentration measured in molar.

Record Clc1ccc([C@]23CCNC[C@@]2(Cn2cncn2)C3)cc1Cl (racemic) . Reported pKi: 7.00

Recorded result, Cc1csc(C23CNCC[C@]2(c2ccc(Cl)c(Cl)c2)C3)n1 (stereo in doubt; 7) , pKi: 7.50

Form field pKi, entry Cc1cc(C(F)(F)F)nn1C[C@@]12CNCC[C@]1(c1ccc(Cl)c(Cl)c1)C2 (racemic) : 7.60

# pKi (molecule: Cc1nc(C)n(CC23CNCC[C@]2(c2ccc(Cl)c(Cl)c2)C3)n1 (single isomer, unassigned; enantiomer 1) ) is 7.60

====

# measured_target: Cytochrome P450 3A4 (Homo sapiens, UniProt P08684)
# Sequence (P08684 whole entry): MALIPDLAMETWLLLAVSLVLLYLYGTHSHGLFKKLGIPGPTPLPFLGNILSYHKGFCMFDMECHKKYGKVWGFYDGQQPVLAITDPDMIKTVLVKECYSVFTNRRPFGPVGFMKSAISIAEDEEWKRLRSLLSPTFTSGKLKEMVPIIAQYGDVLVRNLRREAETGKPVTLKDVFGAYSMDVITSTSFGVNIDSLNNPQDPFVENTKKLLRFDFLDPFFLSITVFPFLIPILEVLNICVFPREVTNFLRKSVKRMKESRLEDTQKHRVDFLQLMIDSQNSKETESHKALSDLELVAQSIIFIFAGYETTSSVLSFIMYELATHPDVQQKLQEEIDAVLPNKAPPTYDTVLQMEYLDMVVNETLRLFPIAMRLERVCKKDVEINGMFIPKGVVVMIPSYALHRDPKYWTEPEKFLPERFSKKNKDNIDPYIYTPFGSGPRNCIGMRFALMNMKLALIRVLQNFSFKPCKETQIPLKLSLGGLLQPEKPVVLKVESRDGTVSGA
pIC50: −log10 of the molar value.
Give measured pIC50 for each item. Keep answers brief.

Entry Cc1ccn(CC23CNCC[C@]2(c2ccc(Cl)c(Cl)c2)C3)n1 (stereo in doubt) , tested on Cytochrome P450 3A4 (Homo sapiens, UniProt P08684), has a reported pIC50 of < 5.00

Lab entry: Cytochrome P450 3A4 (Homo sapiens, UniProt P08684) assay, compound Cc1ccnn1CC12CNCC[C@]1(c1ccc(Cl)c(Cl)c1)C2 (single isomer, unassigned; enantiomer 2) , pIC50 = < 5.00

Record Cc1nc(C)n(CC23CNCC[C@]2(c2ccc(Cl)c(Cl)c2)C3)n1 (single isomer, unassigned; enantiomer 1) ; system Cytochrome P450 3A4 (Homo sapiens, UniProt P08684); pIC50 = < 4.60

Cc1csc(C23CNCC[C@]2(c2ccc(Cl)c(Cl)c2)C3)n1 (single isomer, unassigned; enantiomer 1) tested on Cytochrome P450 3A4 (Homo sapiens, UniProt P08684) gave pIC50: < 5.22

====

# measured_target: Cytochrome P450 2C19 (Homo sapiens, UniProt P33261)
# Sequence (P33261 whole entry): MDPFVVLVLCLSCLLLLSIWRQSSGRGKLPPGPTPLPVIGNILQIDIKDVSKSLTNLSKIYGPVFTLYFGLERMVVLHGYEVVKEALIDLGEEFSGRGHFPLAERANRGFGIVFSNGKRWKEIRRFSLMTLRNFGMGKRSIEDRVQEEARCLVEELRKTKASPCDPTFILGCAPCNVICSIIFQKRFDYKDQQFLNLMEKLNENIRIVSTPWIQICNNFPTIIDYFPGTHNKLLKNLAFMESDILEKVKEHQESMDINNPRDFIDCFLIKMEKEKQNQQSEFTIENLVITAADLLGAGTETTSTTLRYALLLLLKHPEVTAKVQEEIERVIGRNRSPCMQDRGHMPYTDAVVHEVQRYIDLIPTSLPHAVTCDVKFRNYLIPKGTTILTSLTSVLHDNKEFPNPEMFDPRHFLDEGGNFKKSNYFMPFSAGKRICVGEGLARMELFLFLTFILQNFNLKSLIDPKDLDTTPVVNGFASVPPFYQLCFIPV
endpoint_name: IC50

Recorded result, Cc1ccnn1CC12CNCC[C@]1(c1ccc(Cl)c(Cl)c1)C2 (single isomer, unassigned; enantiomer 2) , IC50: > 10 µM

IC50 reading for Cc1nc(C)n(CC23CNCC[C@]2(c2ccc(Cl)c(Cl)c2)C3)n1 (single isomer, unassigned; enantiomer 1) : > 25 µM

For Cc1csc(C23CNCC[C@]2(c2ccc(Cl)c(Cl)c2)C3)n1 (single isomer, unassigned; enantiomer 1) the compound record lists IC50 as > 6 µM

Cc1ccn(CC23CNCC[C@]2(c2ccc(Cl)c(Cl)c2)C3)n1 (stereo in doubt) has a reported IC50 of > 10 µM

====

# measured_target: Sodium-dependent dopamine transporter (Homo sapiens)
# Sequence (Q01959 whole entry): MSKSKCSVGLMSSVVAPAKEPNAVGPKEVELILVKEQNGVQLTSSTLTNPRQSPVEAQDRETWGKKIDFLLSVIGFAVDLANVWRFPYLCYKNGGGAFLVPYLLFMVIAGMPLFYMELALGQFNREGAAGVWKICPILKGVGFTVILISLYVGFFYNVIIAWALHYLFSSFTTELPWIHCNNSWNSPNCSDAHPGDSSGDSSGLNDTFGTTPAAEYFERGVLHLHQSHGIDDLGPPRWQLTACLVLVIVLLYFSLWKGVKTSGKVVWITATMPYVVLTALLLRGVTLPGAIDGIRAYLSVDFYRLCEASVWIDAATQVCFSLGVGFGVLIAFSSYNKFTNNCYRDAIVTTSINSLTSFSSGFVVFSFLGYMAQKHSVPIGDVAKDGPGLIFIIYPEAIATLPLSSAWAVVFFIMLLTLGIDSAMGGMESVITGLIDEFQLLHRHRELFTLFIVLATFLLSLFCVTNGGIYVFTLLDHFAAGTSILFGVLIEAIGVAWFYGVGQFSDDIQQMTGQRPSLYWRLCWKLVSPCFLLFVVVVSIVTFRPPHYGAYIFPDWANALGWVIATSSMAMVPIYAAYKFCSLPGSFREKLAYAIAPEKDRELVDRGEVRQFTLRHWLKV
# assay_name: Displacement of [3H]WIN-35428 from human recombinant DAT by scintillation proximity assay
Label Criterion met when Ki is strictly below 30 nM; otherwise label Criterion not met.

## Task Problem: For the compound Cc1ccn(CC23CNCC[C@]2(c2ccc(Cl)c(Cl)c2)C3)n1 (single isomer, unassigned; enantiomer 1) , is Ki under 30 nM?
## Result Criterion not met

## Task Strictly below 30 nM: is that where Ki of Clc1ccc([C@]23CCNCC2(Cn2ncc4ccccc42)C3)cc1Cl (stereo partly drawn) sits?
## Result Criterion met

## Task Confirm or reject: Ki of CC(C)c1nnn(C[C@@]23CNCC[C@]2(c2ccc(Cl)c(Cl)c2)C3)n1 (racemic) lies strictly below 30 nM
## Result Criterion met

## Task # check: Ki < 30 nM for CC(C)(C)c1ccn(C[C@@]23CNCC[C@]2(c2ccc(Cl)c(Cl)c2)C3)n1 (racemic)
## Result Criterion met

## Task Criterion: Ki strictly below 30 nM. Is it met by Cc1ccnn1CC12CNCC[C@]1(c1ccc(Cl)c(Cl)c1)C2 (stereo in doubt; 16) ?
## Result Criterion not met

## Task Consider Cc1csc(C[C@@]23CNCC[C@]2(c2ccc(Cl)c(Cl)c2)C3)n1 (racemic) . Does its Ki lie strictly below 30 nM?
## Result Criterion met

## Task I wonder whether Cc1ncoc1C[C@@]12CNCC[C@]1(c1ccc(Cl)c(Cl)c1)C2 (racemic) has Ki below 30 nM. Can you tell?
## Result Criterion met

## Task Just wondering, is Ki of Cc1csc(C23CNCC[C@]2(c2ccc(Cl)c(Cl)c2)C3)n1 (single isomer, unassigned; enantiomer 1) below 30 nM?
## Result Criterion met

## Task Quick check: does Cc1ccn(CC23CNCC[C@]2(c2ccc(Cl)c(Cl)c2)C3)c1 (stereo partly drawn) have Ki under 30 nM?
## Result Criterion not met

## Task Lab note: confirm whether the reported Ki for this compound is below 30 nM, equality not counting. compound: Cc1cc(C)n(C[C@@]23CNCC[C@]2(c2ccc(Cl)c(Cl)c2)C3)c1 (racemic)
## Result Criterion met

## Task Is the reported Ki for Cc1nc(C)n(C[C@@]23CNCC[C@]2(c2ccc(Cl)c(Cl)c2)C3)n1 (racemic) strictly below 30 nM?
## Result Criterion met

## Task Hello, I'm reviewing records and need to know if Ki of N#Cc1ccn(CC23CNCC[C@]2(c2ccc(Cl)c(Cl)c2)C3)c1 (single isomer, unassigned; enantiomer 1) is below 30 nM. Could you check?
## Result Criterion met

## Task Identify whether the compound Cc1cc(C)n(CC23CNCC[C@]2(c2ccc(Cl)c(Cl)c2)C3)n1 (single isomer, unassigned; enantiomer 1) records Ki below 30 nM.
## Result Criterion not met

====

endpoint_name: IC50

Short answer on Cytochrome P450 2D6 (Homo sapiens, UniProt P10635) for Cc1csc(C23CNCC[C@]2(c2ccc(Cl)c(Cl)c2)C3)n1 (single isomer, unassigned; enantiomer 1) , IC50: > 6 µM

GET /values?item= Cc1nc(C)n(CC23CNCC[C@]2(c2ccc(Cl)c(Cl)c2)C3)n1 (single isomer, unassigned; enantiomer 1) &system= Cytochrome P450 2D6 (Homo sapiens, UniProt P10635) returns IC50: > 25 µM

Field IC50 (Cytochrome P450 2D6 (Homo sapiens, UniProt P10635)), entry Cc1ccn(CC23CNCC[C@]2(c2ccc(Cl)c(Cl)c2)C3)n1 (stereo in doubt) : > 10 µM

Cytochrome P450 2D6 (Homo sapiens, UniProt P10635) assay, molecule Cc1ccnn1CC12CNCC[C@]1(c1ccc(Cl)c(Cl)c1)C2 (single isomer, unassigned; enantiomer 2) , recorded IC50 = > 10 µM
